target: DNA dC->dU-editing enzyme APOBEC-3G (Homo sapiens) (UniProt Q9HC16); experiment: APOBEC3G DNA deaminase inhibitors, primary screen, biochemical, fluorescence, single-stranded DNA substrate, uHTS (AID 493012); details: recombinant A3G, ssDNA deamination FAM/TAMRA fluorescence; at 20 µM; stronger effect = higher value;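 also: plate controls were DMSO wells with A3G for no effect and wells lacking A3G enzyme for full effect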
Sequence (Q9HC16 whole entry, looked up): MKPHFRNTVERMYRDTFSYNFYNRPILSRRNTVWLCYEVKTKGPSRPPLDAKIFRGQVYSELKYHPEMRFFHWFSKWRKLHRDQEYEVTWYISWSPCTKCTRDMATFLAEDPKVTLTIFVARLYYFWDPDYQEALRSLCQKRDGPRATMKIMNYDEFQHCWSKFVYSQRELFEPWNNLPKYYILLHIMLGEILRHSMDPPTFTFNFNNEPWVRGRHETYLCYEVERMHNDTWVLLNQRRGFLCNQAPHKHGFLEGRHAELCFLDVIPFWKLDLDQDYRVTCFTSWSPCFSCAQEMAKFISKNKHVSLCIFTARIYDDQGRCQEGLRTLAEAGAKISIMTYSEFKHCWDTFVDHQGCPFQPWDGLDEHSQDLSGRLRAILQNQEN
Hit rate of the full screen: of about 330,000 compounds, about 930 (0.28%) were called active. What follows is part of a selection rich in actives, with near analogues and random picks from the rest.
recorded metric: inhibition (%)
State the answer as a number, implicitly in %.

Req: Let me know recorded inhibition for COc1ccc(CCNC(=O)CS(=O)(=O)Cc2nc(-c3ccc(C)cc3)oc2C)cc1OC , thanks.
Resp: -6.41

Req: For the compound Cc1ccc(NC(=O)CN(C)C(=O)c2ccc(Cl)c(S(=O)(=O)NCc3ccco3)c2)cc1 , give its measured inhibition value.
Resp: -5.2

Req: Quote inhibition reported for Cc1cc(-c2n[nH]c(=S)n2/N=C/c2ccco2)n[nH]1 please.
Resp: 44.7

Req: Annotate the compound O=C(CN1CCCCC1)Nc1ccccc1C(=O)NC1CC1 with its measured inhibition.
Resp: -5.07

Req: Complete the entry with inhibition for CN(C)c1ccc(C(CNC(=O)c2ccc(F)cc2)c2c[nH]c3ccccc23)cc1 (stereo not given)
Resp: -2.56
